MEASURED_TARGET: unlabeled double-repeat CTD-Ser2P/Ser5P peptide (S. cerevisiae)
MEASUREMENT_PROTOCOL: fluorescence polarisation
MEASURED_QUANTITY: Kd (µM)
Kindly answer with a numeric value in µM, unit omitted.

Recorded Kd (binder Nrd1_(6–151) D70R (domain or fragment) DFQNFVATLESFKDLKSGISGSRIKKLTTYALDHIDIESKIISLIIDYSRLCPDSHKLGSLYIIRSIGRAYLDETRSNSNSSSNKPGTCAHAINTLGEVIQELLSDAIAKSNQDHKEKIRMLLDIWDRSGLFQKSYLNAIRSKCFA ): 100

Recorded Kd (binder Nrd1_(6–151) S22D (domain or fragment) DFQNFVATLESFKDLKDGISGSRIKKLTTYALDHIDIESKIISLIIDYSRLCPDSHKLGSLYIIDSIGRAYLDETRSNSNSSSNKPGTCAHAINTLGEVIQELLSDAIAKSNQDHKEKIRMLLDIWDRSGLFQKSYLNAIRSKCFA ): 100

Recorded Kd (binder Nrd1_(6–151) K21P (domain or fragment) DFQNFVATLESFKDLPSGISGSRIKKLTTYALDHIDIESKIISLIIDYSRLCPDSHKLGSLYIIDSIGRAYLDETRSNSNSSSNKPGTCAHAINTLGEVIQELLSDAIAKSNQDHKEKIRMLLDIWDRSGLFQKSYLNAIRSKCFA ): 48

Recorded Kd (binder Nrd1_(6–151) K21D (domain or fragment) DFQNFVATLESFKDLDSGISGSRIKKLTTYALDHIDIESKIISLIIDYSRLCPDSHKLGSLYIIDSIGRAYLDETRSNSNSSSNKPGTCAHAINTLGEVIQELLSDAIAKSNQDHKEKIRMLLDIWDRSGLFQKSYLNAIRSKCFA ): 70

Recorded Kd (binder Nrd1_(6–151) I130R (domain or fragment) DFQNFVATLESFKDLKSGISGSRIKKLTTYALDHIDIESKIISLIIDYSRLCPDSHKLGSLYIIDSIGRAYLDETRSNSNSSSNKPGTCAHAINTLGEVIQELLSDAIAKSNQDHKEKIRMLLDRWDRSGLFQKSYLNAIRSKCFA ): 27
